Every entry's value here was drawn from PubChem BioAssay (EPA / NIEHS).

# Read-out: Monokine induced gamma interferon (MIG), CXCL9 (gene 4283)
# measurement_protocol: BSK_BE3C_MIG: BioMAP Diversity Plus: BE3C Assay for Monokine induced gamma interferon (MIG) Biomarker Activity (AID 2283035)
# experimental_setup: primary human bronchial epithelial cells; actives raise or lower the signal
The source made the active and inactive calls. The calls were made as follows: active = hit-call score of the fitted dose curve at least 0.9, where 1 is the maximum; inactive = score below 0.9.
// classify into active, inactive

Asked: Recorded test call requested for N#Cc1ccc(N(CC(N)=O)CC(F)(F)F)cc1C(F)(F)F
Given back: inactive

Asked: Outcome logged for CCC(C)(c1ccc(O)cc1)c1ccc(O)cc1 in this assay:
Given back: inactive

Asked: // param item: CC(C)(c1ccccc1)c1ccc(O)cc1 ; yields the recorded call
Given back: active

Asked: Can you look up the reported call for Cc1cc(-c2ccc(N)c(C)c2)ccc1N for me?
Given back: inactive

Asked: Hi, do you know how CC(C)(O)C(=O)Nc1ccc([N+](=O)[O-])c(C(F)(F)F)c1 came out in this test?
Given back: inactive

Asked: Field: outcome | Entry: COc1ccc(O)c(C(C)(C)C)c1
Given back: inactive

Asked: Which outcome was entered for the compound ClC1=C(Cl)[C@]2(Cl)[C@@H]3[C@@H]4C[C@@H]([C@H]5O[C@@H]45)[C@@H]3[C@@]1(Cl)C2(Cl)Cl in this test?
Given back: inactive

Asked: Tell me the recorded outcome of this test for Cc1cc(O)ccc1Cl .
Given back: inactive

Asked: Name the outcome recorded for CN(C)CCO in the assay.
Given back: inactive

Asked: What outcome does the record of this test show for ClC(Cl)=C(c1ccc(Cl)cc1)c1ccc(Cl)cc1 ?
Given back: inactive

Asked: # outcome recorded in this test, key = CC#Cc1cc(C)nc(Nc2ccccc2)n1
Given back: inactive

Asked: Each compound tested received a call. Report the one for Oc1ccc(Cl)cc1Cl .
Given back: inactive

Asked: Dear colleague, could you share the recorded outcome for CCOCCOC(C)=O when you have a moment?
Given back: inactive

Asked: Answer briefly: the call reported for Nn1cnnc1 in this assay.
Given back: inactive

----------
# system_name: rat Opioid Receptor, Non-selective Sodium (Na+) Binding, Oprm1 (gene 25601)
# measurement_protocol: NVS_GPCR_rOpiate_NonSelectiveNa: NovaScreen (NVS) G Protein-Coupled Receptor Assay for rat Opioid Receptor, Non-selective Sodium (Na+) Binding (AID 2283311)
Inconclusive results are not listed. Active and inactive are the calls of the source. How the source made its calls: active means hit-call score of the fitted dose curve at least 0.9, where 1 is the maximum; inconclusive means response in the unintended direction; inactive means score below 0.9.
Result category, one only: true (1) (active), false (0) (inactive)

Worked examples, 3 compounds total:
Cc1cc2c3c(c1)C(c1ccccc1)=N[C@@H](NC(=O)c1ccncc1)C(=O)N3CC2
false (0)
C[C@]12CCC(=O)C=C1CC[C@@H]1[C@@H]2CC[C@]2(C)C(=O)CC[C@@H]12
false (0)
CCC(C)(c1ccc(O)cc1)c1ccc(O)cc1
true (1)

Asked: What outcome does the record of this test show for O=C(NC(=O)c1c(F)cccc1F)Nc1cc(Cl)c(OC(F)(F)C(F)F)c(Cl)c1 ?
Given back: false (0)

Asked: Could you please tell me the result logged for CCCCCCCCCC[N+](C)(C)CCCCCCCCCC in this assay?
Given back: false (0)

----------
# measurement_protocol: BSK_hDFCGF_SRB: Viability Assessment in the BioMAP Diversity Plus: hDFCGF Assay (AID 2283061);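 also: cells exposed to compound for 24 h before the read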
# experimental_setup: primary human foreskin fibroblasts
# Protocol: BSK_hDFCGF is a cell-based, multiplexed-readout assay that uses foreskin fibroblast, a human skin primary cell, with measurements taken at 24 hours after chemical dosing in a 96-well plate.BSK_hDFCGF_SRB is an assay component measured in the BSK_hDFCGF assay. It measures 0.1% sulforhodamine related to cell death using Sulforhodamine staining technology.Data from the assay component BSK_hDFCGF_SRB was analyzed into 1 assay endpoint. […]
Activity calls are given as the source filed them. Rule for the calls: active = hit-call score of the fitted dose curve at least 0.9, where 1 is the maximum; inactive = score below 0.9.
Respond only with the outcome that fits, drawn from active, inactive

Previously resolved entries follow.
CN(C)c1nc(=O)n(C2CCCCC2)c(=O)n1C
inactive
Clc1ccc(Cl)cc1
inactive
CCNc1nc(NC(C)C)nc(SC)n1
inactive
N#Cc1ccc(N(CC(N)=O)CC(F)(F)F)cc1C(F)(F)F
inactive
Cc1cc2c3c(c1)C(c1ccccc1)=N[C@@H](NC(=O)c1ccncc1)C(=O)N3CC2
inactive

Asked: Test call for this compound, please: CCCCCCCCCC[N+](C)(C)CCCCCCCCCC
Given back: active

Asked: # lookup: test call for Sc1ccccc1
Given back: inactive

Asked: Would you mind telling me which call this test gave CCOP(=S)(OCC)SCSC(C)(C)C ?
Given back: inactive

Asked: What classification did COS(=O)(=O)OC end up with in this test?
Given back: inactive

Asked: Returns: the outcome recorded for Nc1ccc(-c2ccc(N)cc2)cc1 in this assay.
Given back: inactive

Asked: Assay result, entry C[C@]12CCC(=O)C=C1CC[C@@H]1[C@@H]2CC[C@@]2(C)[C@H]1CC[C@]2(C)O — outcome?
Given back: inactive

Asked: Hi, sorry to bother you, what did the test record for CN(C)CCO ?
Given back: inactive

Asked: Check the results log: what was the call for COc1ccc(O)c(C(C)(C)C)c1 ?
Given back: inactive

Asked: Field: outcome | Entry: c1cc2ccc3cccc4ccc(c1)c2c34
Given back: inactive

Asked: Answer briefly: the call reported for Oc1ccc(C(c2ccc(O)cc2)(C(F)(F)F)C(F)(F)F)cc1 in this assay.
Given back: active

Asked: For CCC(C)(c1ccc(O)cc1)c1ccc(O)cc1 , which call appears in the assay record?
Given back: active

Asked: I would be grateful if you could indicate the recorded call for ClC1=C(Cl)[C@]2(Cl)[C@@H]3[C@H]4C[C@H]([C@@H]5O[C@H]45)[C@@H]3[C@@]1(Cl)C2(Cl)Cl .
Given back: inactive

Asked: Just curious, what result did Cc1cccc([N+](=O)[O-])c1 get here?
Given back: inactive

Asked: Any idea what this test logged for Cc1ccccc1O ?
Given back: inactive

Asked: Any idea what this test logged for CCC(C)(CC)c1cc(NC(=O)c2c(OC)cccc2OC)on1 ?
Given back: inactive

Asked: What classification did Clc1ccc(C(Cl)(Cl)Cl)cc1 end up with in this test?
Given back: inactive

Asked: Called result for CCCCCCOC(=O)c1ccccc1C(=O)OCCCCCC
Given back: inactive

Asked: Recorded test outcome, item CCC(C)c1cc([N+](=O)[O-])cc([N+](=O)[O-])c1O (centres undefined)
Given back: active

Asked: # outcome recorded in this test, key = O=NN(c1ccccc1)c1ccccc1
Given back: inactive

Asked: Please share the test call associated with CCCN(CCC)N=O .
Given back: inactive

Asked: Hi team, can someone confirm the assay call for O=C(N[C@H]1CN2CCC1CC2)c1cc2ccoc2cn1 ?
Given back: inactive

Asked: Please indicate how the test categorized CO/C=C(/C(=O)OC)c1ccccc1COc1cccc(C(F)(F)F)n1 .
Given back: active

Asked: Answer briefly: the call reported for Cc1cccc(C)c1N in this assay.
Given back: inactive

Asked: Recorded test call requested for C1CC2OC2CC1C1CO1 (centres undefined)
Given back: inactive

Asked: What call does the record list for CC1=C2C[C@H]3[C@@H](CC=C4C[C@@H](O)CC[C@@]43C)[C@@H]2CC[C@]12O[C@@H]1C[C@H](C)CN[C@H]1[C@H]2C ?
Given back: inactive

Asked: How was Cc1ccccc1[N+](=O)[O-] classified in this test?
Given back: inactive

Asked: # outcome recorded in this test, key = O=C(NC(=O)c1cc(F)c(F)cc1Cl)Nc1cc(F)ccc1N1CCC(C(=O)O)CC1
Given back: inactive

----------
# Test system: turtle Thyroid Hormone Receptor, alpha (TRa), gene 101949057
# measurement_protocol: ATG_trTRa_XSP2: Attagene TRANS-FACTORIAL Multi-Species (XSP1) HepG2 Assay for turtle Thyroid Hormone Receptor, alpha (TRa) (AID 2283834);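 also: hits raise reporter mRNA over the DMSO baseline so AC50 marks activators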
# Procedure: ATG_XSP2_multi-species_TRANS is a cell-based, multiplexed assay created by modifying the existing Attagene TRANS-FACTORIAL system to include a panel of nuclear receptors from some or all the following species: human (Homo sapiens), mouse (Mus musculus), frog (Xenopus laevis), zebrafish (Danio rerio), chicken (Gallus gallus), and turtle (Chrysemys picta). The ECOTOX-FACTORIAL format uses HepG2, a human liver cell line, with measurements taken at 24 hours after chemical dosing in a 24-well plate. […]
Inconclusive results are not listed. Activity calls are given as the source filed them. The calls were made as follows: active = hit-call score of the fitted dose curve at least 0.9, where 1 is the maximum; inconclusive = response in the unintended direction; inactive = score below 0.9.
measurement_type: outcome

CC(C)(c1ccccc1)c1ccc(O)cc1
inactive
c1cc2ccc3cccc4ccc(c1)c2c34
inactive
C[C@]12CCC(=O)C=C1CC[C@@H]1[C@@H]2CC[C@]2(C)C(=O)CC[C@@H]12
inactive

----------
# measurement_protocol: APR_HepG2_MitoMass_72hr: Apredica 72-hour HepG2 Assay for Mitochondrial Mass (AID 2282924);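 also: MitoTracker Red CMXRos stain intensity per cell imaged as mitochondrial mass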
# experimental_setup: high-content imaging, actives raise or lower the signal
Calls of active or inactive are those of the source. The calls were made as follows: active = hit-call score of the fitted dose curve at least 0.9, where 1 is the maximum; inactive = score below 0.9.
Hi there, use one of these labels in your reply, thanks! active, inactive

CC#Cc1cc(C)nc(Nc2ccccc2)n1
inactive
Cc1ccc(O)c(C)c1
inactive

Asked: What call does the record list for CCCCCCCCCc1ccc(O)cc1 ?
Given back: inactive

Asked: Hey, what did the test say about Clc1ccc(C(c2ccccc2Cl)C(Cl)(Cl)Cl)cc1 (stereo unspecified) ?
Given back: inactive

Asked: Just curious, what result did CC(C)(O)C(=O)Nc1ccc([N+](=O)[O-])c(C(F)(F)F)c1 get here?
Given back: active

Asked: Query: recorded result category for CCOCCOC(C)=O in this test
Given back: inactive
